# assayed target: Calpain-1 catalytic subunit (Sus scrofa)
# Sequence (P35750 whole entry): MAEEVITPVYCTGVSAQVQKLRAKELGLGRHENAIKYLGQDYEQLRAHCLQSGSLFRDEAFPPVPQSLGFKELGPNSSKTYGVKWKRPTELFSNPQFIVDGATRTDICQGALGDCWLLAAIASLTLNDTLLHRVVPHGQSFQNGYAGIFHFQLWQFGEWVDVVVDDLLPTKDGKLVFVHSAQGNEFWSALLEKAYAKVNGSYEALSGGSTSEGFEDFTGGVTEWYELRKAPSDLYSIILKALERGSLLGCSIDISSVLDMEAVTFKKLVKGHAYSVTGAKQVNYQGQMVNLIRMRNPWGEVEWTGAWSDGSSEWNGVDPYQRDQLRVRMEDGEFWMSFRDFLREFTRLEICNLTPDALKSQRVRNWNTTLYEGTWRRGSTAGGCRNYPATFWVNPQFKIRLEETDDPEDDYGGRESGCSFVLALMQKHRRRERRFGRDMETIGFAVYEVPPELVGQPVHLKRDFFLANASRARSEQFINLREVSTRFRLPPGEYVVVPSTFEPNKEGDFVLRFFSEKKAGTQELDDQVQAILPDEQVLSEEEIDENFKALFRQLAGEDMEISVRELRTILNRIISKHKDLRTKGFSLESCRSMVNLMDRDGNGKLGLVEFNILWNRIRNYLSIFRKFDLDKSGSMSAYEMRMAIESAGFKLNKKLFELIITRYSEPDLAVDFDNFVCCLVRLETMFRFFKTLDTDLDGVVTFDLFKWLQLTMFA
# test description: Binding affinity was evaluated against porcine erythrocyte Calpain 1 at the S1 subsite of the enzyme
observation type: Ki (nM)

Examples with answers:
# compound, observation type, reported
rows = [
    ("CCCNC(=O)C(=O)[C@H](Cc1ccccc1)NC(=O)[C@H](CC(C)C)NC(=O)OCc1ccccc1", "Ki", 107),
    ("CC(C)C[C@H](NC(=O)OCc1ccccc1)C(=O)N[C@@H](Cc1ccccc1)C(=O)C(=O)N(C)OCc1ccccc1", "Ki", 673),
    ("CCNC(=O)C(=O)[C@H](Cc1ccccc1)NC(=O)[C@H](CC(C)C)NC(=O)OCc1ccccc1", "Ki", 200),
    ("CCN(OCc1ccccc1)C(=O)C(=O)[C@H](Cc1ccccc1)NC(=O)[C@H](CC(C)C)NC(=O)OCc1ccccc1", "Ki", 28000),
    ("CC(C)C[C@H](NC(=O)OCc1ccccc1)C(=O)N[C@@H](Cc1ccccc1)C(=O)C(=O)NOCc1ccccc1", "Ki", 45),
    ("CC(C)C[C@H](NC(=O)OCc1ccccc1)C(=O)N[C@@H](Cc1ccccc1)C(=O)C(=O)NCCc1ccccc1", "Ki", 72),
]

A = CCONC(=O)C(=O)[C@H](Cc1ccccc1)NC(=O)[C@H](CC(C)C)NC(=O)OCc1ccccc1
B = CCON(C)C(=O)C(=O)[C@H](Cc1ccccc1)NC(=O)[C@H](CC(C)C)NC(=O)OCc1ccccc1
Which has the higher Ki, A or B ? The response must carry the label of the picked entry.
B
(B: 750 nM, A: 62 nM)
